src = the supplement of paper PMC9170038

System: MS2 coat protein
experimentalProtocol: apparent KD of MS2 coat protein; higher = weaker reporter binding
experimentalSetup: Eterna round: R107; input ligand: theophylline 2 mM
quantityKind: apparent KD of MS2 coat protein (µM)
Please state the figure in µM; there is no need to write the unit.

Example entries and their recorded answers appear below.
CUACAUUUGUAGAAACCGGUCAACAAUAAUCGAGGACCGGUACGGCCGCCACUCGAUGUAAAAUAAACAUGAGGAUCACCCAUGU [Tryptophan A 12] = 0.02
UAAUAAUCCAGGGUGUAGGUAAUAACAGAUACCAGCCAGAUAACUGGCCCUUGGCAGCUGAAAACCUGAGGAUCACCCAGGUAAA [TheoAS 23 #OpenEnded #MS2Late #AlternativeMS2] = 0.0677
UGUAUAUACGGAAGGAGCGUGUAAGAUUAAGAACAUGAGGAUCACCCAUGUUUUAAGGGAACACAGGUAGGUCGCCGUAUAUAUG [11.O] = 0.0117

Pending sequence:
The reported apparent KD of MS2 coat protein of the sequence GCAUCCUAGUCGGCCGCCACUGGUACGAACACCUUCACCCGUGUGCACAUGAGGAUCACCCAUGUCAGGACCGGGACUAGGAUGC [SSTryp B #22] was 0.00854

---

Measured apparent KD of MS2 coat protein accompanies every entry in the list below.
Test system: MS2 coat protein
experimentalProtocol: apparent KD of MS2 coat protein; designed switch direction (-1 OFF switch, 1 ON switch): -1; higher = weaker reporter binding
experimentalSetup: input ligand: microRNA oligo, concentration not stated
Please state the figure in nM; there is no need to write the unit.

Example entries and their recorded answers appear below.
CCAGAGAGCGAAGGAUAUUCUGUUCAAUGGGUCGACCUAGACAUGAGGAUCACCCAUGUCGCCCGGGAGAAGGUCGCAAGGAUC [Eternabot solution 18] (Eterna round: R96, puzzle: Exclusion NG 2) = 13.3
AACAAUACUUACAUAAUAAGGCUUUUCAGGUCGGGUACCACAUGAGGAUCACCCAUGUAGCAGCCUAGGGAAUGAUA [JR_Sensorv2_tov2_Sub1233] (Eterna round: R96, puzzle: Sensor v2, turn-off variant 2) = 36.4

Value sought: apparent KD of MS2 coat protein, system MS2 coat protein, item UUUGAUAGCACAGGAUAUUGUGAUUUGAGUUGACAAGAAGGGUGUACAUGAGGAUCACCCAUGUAAUGGUUGCCUCGUUGACUU [JR_ExcNG1_Sub006] (Eterna round: R96, puzzle: Exclusion NG 1) . Result: 36

---

System: MS2 coat protein
experimentalProtocol: apparent KD of MS2 coat protein, switch OFF state (with FMN for OFF switches, without FMN for ON switches); designed switch direction (-1 OFF switch, 1 ON switch): -1; higher = weaker reporter binding
experimentalSetup: FMN input: 0 or 200 uM; Eterna round: R93 (includes R88 designs)
Entries get a class label from measured apparent KD of MS2 coat protein. See ranges: lower band = under 20 nM, central band = from 20 nM up to 50 nM, upper band = 50 nM and over

AAAAGUCGAGGAUAUGCAAAAUGAUUGCGAAAGCAAUCAAAACAUGAGGAUCACCCAUGUAGAAGGCGACAAAA [Fiskers Exclusion 2 D3] = lower band
AAGAAGUCAGGAUAUGCGAAGGCGUCUGAUAGACGAGGCUAGCAGAAGGGACAUGAGGAUCACCCAUGUAAAGA [Mat - Exclusion 4 - D83] = upper band
AAAAGUUCAGGAUAUACAUGAGGAUCACCCAUGUAGAAAGGAAGUGUAAAAAAAAAGUGUAGAAGGGAGCAUGA [MS2 Riboswitches On Chip Exclusion 3 wbt2] = central band
CUCAAGUUAGGAUAUCAAAGAAAAGAAGAGAAAGAAAAGAAUGAGAAGGAACAUGAGGAUCACCCAUGUAAGAA [EteRNA is fun!] = central band
AAAAAAAGAGGAUAUACAUGAGAAAAAAAAAUGUAAAAAAAACAUGAGGAUCACCCAUGUAGAAGGCUUAAAAA [Ecxl-I] = central band

Ask: Which class is correct for the following sequence? AAGAUGUCAGGAUAUGCUGCUCGUCACGAAAGUGAUGAGUAGCAGAAGGGACAUGAGGAUCACCCAUGUAAAGA [Exclusion 4.1c (Exclusion4-cac2 - mutated U at 5)]
Result: upper band

Ask: Which class is correct for the following sequence? AACAAGUGAGGAUAUCGGAAAAGUAAAUAAGUAAAACAAAACGAGAAGGCACAUGAGGAUCACCCAUGUAAAUA [JR_Exc004_Sub014]
Result: lower band

---

Measured apparent KD of K4 kissing-loop reporter accompanies every entry in the list below.
Tested on: K4 kissing-loop RNA reporter;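 further: bound reporter read as fluorescence of individual clusters on recovered sequencing chips by microscopy, with normalized cluster intensities fitted with a binding model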
experimentalProtocol: apparent KD of K4 kissing-loop reporter; higher = weaker reporter binding
experimentalSetup: Eterna round: R107; input ligand: theophylline 20 uM
Please state the figure in nM; there is no need to write the unit.

Example entries and their recorded answers appear below.
UCGAAAUGCGACUCCUAGUUACACCGGGAAGGAGCGUGGAUAACCGCAGGUAGGUCGCCCGGAAGCCGGACCAGUGAUGUUGGUC [Exclusion Arginine A Gf 28] = 274
UCUGUACCGGGAAGGAGCGUGAAUGAGAAUGGAUAUAGUGAUGUUAUGUAUACGAACGAAUCGCAGGUAGGUCGCCCGGAUCCCU [SSArgB.aA] = 474
AAAUGCUUGUAUUUGAACAAUUCCUUUAGGGAGGAUAUUGGUAAUACAAGAAGGCCCUGAUGGGAGUGAUGUUCCCAUAACGCGG [Exclusion FMN A GF16] = 90.2
UGAUACCAGGCGGCCGCCACUCCUACAGGUCAAAGACCUGUAAAACUGGUUUUUUAGUGAUGUUGGAGGACCGGGCCUGGUAUCU [FiskerMod 28 - Jieux - Exclusion - Tryptophan B] = 183
AGAUCUGUAACAGAUACCAGAGGACGAUGAUCGGAUAGUGAUGUUAUCUAUCAGUCGUCGCUCCCUUGGCAGCUGUUACAGAUCA [Omei KL Theo B SS B v2] = 552
UGAUACCAGACGGCCGCCACUCCUGCAAGUCAAAGACUUGCUAAAAGGAUCGUCCAGUGAUGUUGGAGGACCGGGUCUGGUAUCU [TrypBX 19 #SwitchBubble #Palindromic #StaticStem] = 638
AACCCAUGACUGGAUACCAGACUAUACAUGCUGAGUGAUGUUUAGCGGAGUCAUCUCUCGGUCCCUUGGCAGCCAACGUCACGCG [theeternabot_sameState_KL_Theo_B_33] = 403
AAUAAAAGAUGUUUAGGAAAGCAAAUGGAAGGAGCGUGCGAAAGCACAGGUAGGUCGCCAGUGAUGUUGGCACCUGAGCAUCAAA [#SwitchBubble 18 #K4Late] = 336
GUAGCACUUGAUAGUGAUGUUAUCAAGGACAAGGAUAUCAUCUCAAUGAGAAGGUGUCCUUGAUAACAGCUACGGGAAUAUCCCA [Omei KL FMN A Exc D v1] = 280
GGGAAGGAGUGAUGUUUCUUCUGAAUUUCUAAGGAUAUACGAUGCGGUAGAAGGUAGAUGCCUUGCAGGAAAUGUUCACCACGCG [theeternabot_exclusion_KL_FMN_A_2] = 184

The reported apparent KD of K4 kissing-loop reporter of the sequence GCAUCGAUGGCAGGAUAUAGGUUCGUGGAGUGAUGUUCCAUAGCCCGAGUGAUGUUCGUUAUCCGCCUAGAAGGGCCGUGGAUGC [whbob_Ex_FMNB__2th215] was 221

The reported apparent KD of K4 kissing-loop reporter of the sequence UGUGAGCUGUCGACAAAAGUCGACUAAAACGAGGAUAUGACGAAAGUCAGAAGGCGUCAAUAAUGGAGUGAUGUUCCUGCUCACU [FmnA 9 #SwitchBubble #K4Late] was 453

The reported apparent KD of K4 kissing-loop reporter of the sequence GGGAGUAGUGCGGCCGCCACUGAGAAAGAAGAAGAAUGUAGUGAUGUUAUGUAGGAAAGGAAGAACAGGACCGGGCAUUAGAUUU [SSTRyptB.H] was 840

The reported apparent KD of K4 kissing-loop reporter of the sequence ACAGCGAGCAUUAACGCGCUCGCAGGUUGCAAGGAUAUAUUUCGUCAUAGAAGGUGCUAGACCAUAAGUGAUGUUUGUGGAUAUA [theeternabot_sameState_KL_FMN_A_16] was 448

The reported apparent KD of K4 kissing-loop reporter of the sequence GUGGCACGAAAGUGCCACGCAUCCUCUCCCUAGGAUAUCUGGAAACAGAGAAGGAGGUCAUGAGUGAUGUUCAUCCAGAGGAUGC was 738

---

System: MS2 coat protein
experimentalProtocol: apparent KD of MS2 coat protein; designed switch direction (-1 OFF switch, 1 ON switch): -1; higher = weaker reporter binding
experimentalSetup: Eterna round: R98; input ligand: none
quantityKind: apparent KD of MS2 coat protein (nM)
Please state the figure in nM; there is no need to write the unit.

The reported apparent KD of MS2 coat protein of the sequence UAUAUUUAGGCAGGAUAUACAUGUAUAUAUAAUUUUUUAUAUAUUAUUACAUGAGGAUCACCCAUGUAGAAGGGCCUUAUUAUA [LRO040_Exclusion NG 2] was 51.2

The reported apparent KD of MS2 coat protein of the sequence UGUUGUUACGCAGGAUAUUGCCAACAGGCGGUAGGAUAUCCGAAAGGAGAAGGAUCGCCAACAGGCGAGAAGGGCGGGUUAACA [pwkr exNG2 2xF7 2FMN.10.3] was 21.3

The reported apparent KD of MS2 coat protein of the sequence GGUUGUUACGCAGGAUAUUGCCAACAGGCAGUAGGAUAUCCGAAAGGAGAAGGACCGCCAACAGGCGAGAAGGGCGGGUUAACC [pwkr exNG2 2xF7 2FMN.10.4] was 35.4

The reported apparent KD of MS2 coat protein of the sequence CGCUCGCCGAGAGGAUAUGCAUUGGUGGGCGGUCCUGAACAUGAGGAUCACCCAUGUAUCAGUAAGCAGAAGGCUUGGUAGACG [Usesreed] was 20.1

The reported apparent KD of MS2 coat protein of the sequence AGAGCCUCGUGAGGAUAUACAUGAGGAUCACCCAUGUAAUAGGAUGAACGGAGGAAACUCCGAAUGUAGAAGGCACGAGGCUCA [Exclusion NG 2/11-B1] was 74.5
